- measured on: T1, Rtt107NTD (BRCT1-4 domains of Rtt107, residues 2-513) (S. cerevisiae, UniProt P38850 2-513)
- T1 sequence (looked up): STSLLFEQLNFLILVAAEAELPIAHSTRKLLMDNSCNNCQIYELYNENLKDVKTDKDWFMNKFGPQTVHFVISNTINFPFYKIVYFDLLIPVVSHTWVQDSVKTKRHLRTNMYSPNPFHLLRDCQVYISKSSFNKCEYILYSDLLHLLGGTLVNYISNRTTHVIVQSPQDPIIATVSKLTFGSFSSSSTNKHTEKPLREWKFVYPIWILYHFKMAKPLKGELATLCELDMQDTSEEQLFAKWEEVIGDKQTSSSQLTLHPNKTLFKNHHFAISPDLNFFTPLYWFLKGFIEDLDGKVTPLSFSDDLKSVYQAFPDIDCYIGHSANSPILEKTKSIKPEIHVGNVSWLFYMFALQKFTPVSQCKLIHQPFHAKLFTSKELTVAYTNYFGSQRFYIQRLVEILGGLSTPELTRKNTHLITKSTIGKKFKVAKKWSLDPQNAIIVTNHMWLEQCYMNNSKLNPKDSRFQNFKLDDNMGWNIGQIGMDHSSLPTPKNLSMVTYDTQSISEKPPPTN
- assay notes: ITC
assay readout: Kd (nM)
Quick note: give the figure in nM, leave out the unit.

Consider the binder DVDEPNPIVISDSEATDEEISIIYEPEFNENYLWAEE (peptide, UniProt Q06164 2-38, looked up) [Mms22RIM peptide (Mms22 residues 2-38)] and give its measured Kd.
15
